Listed compounds paired with reported %Inh
System: SGK3
conditions_used: concentration: 1 μM, replicates: in singlicate; n = 1;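 further: KINOMEscan kinase panel screen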
measured_metric: %Inh (%)

[[record]]
compound = "COc1ccc(Nc2nccc(NCCNC(=O)Nc3cc(C)ccc3C)n2)cc1 [GSK1379899]"
system = "SGK3"
measured_metric = "%Inh"
unit_tag = "%"
quantitative_result = 0

[[record]]
compound = "CNc1nc(-c2ccc3c(N)n[nH]c3c2)cc(N2C[C@@H](C(=O)NC3CCCCC3)OC[C@H]2C)n1 [GSK2375584]"
system = "SGK3"
measured_metric = "%Inh"
unit_tag = "%"
quantitative_result = 20

[[record]]
compound = "COc1ccc(CSc2nnc(-c3ccc4c(c3)CCO4)o2)cc1"
system = "SGK3"
measured_metric = "%Inh"
unit_tag = "%"
quantitative_result = 0

[[record]]
compound = "Nc1nccc(-c2c(-c3ccc(F)cc3)ncn2C2CCN(Cc3ccccc3)CC2)n1 [SB-219980]"
system = "SGK3"
measured_metric = "%Inh"
unit_tag = "%"
quantitative_result = 28

[[record]]
compound = "O=C(Nc1n[nH]c2cc(-c3ccsc3)ccc12)C1CC1 [SB-732932]"
system = "SGK3"
measured_metric = "%Inh"
unit_tag = "%"
quantitative_result = 26

[[record]]
compound = "O=C(Nc1n[nH]c2nc(-c3cccs3)c(Br)cc12)C1CC1 [SB-735297]"
system = "SGK3"
measured_metric = "%Inh"
unit_tag = "%"
quantitative_result = 15

[[record]]
compound = "Cc1ccc(NC(=O)Nc2ccc(Cl)c(C(F)(F)F)c2)cc1-c1ccc(C(=O)Nc2ccncc2)cc1 [GSK1398470]"
system = "SGK3"
measured_metric = "%Inh"
unit_tag = "%"
quantitative_result = 4

[[record]]
compound = "Cc1cccc2c(-c3ccncn3)c(-c3ccc(F)cc3)nn12 [GW515532]"
system = "SGK3"
measured_metric = "%Inh"
unit_tag = "%"
quantitative_result = 2

[[record]]
compound = "Cn1cncc1-c1cc2c(Nc3ccc(OCc4ccccc4)cc3)ncnc2cn1 [GW281179]"
system = "SGK3"
measured_metric = "%Inh"
unit_tag = "%"
quantitative_result = 0


====

System: JAK2(JH1domain-catalytic)
conditions_used: concentration: 1 μM, replicates: in singlicate; n = 1
Listed compounds paired with reported %Inh
measured_metric: %Inh (%)

[[record]]
compound = "COc1ccc(Nc2nccc(-c3ccc(NC(=O)c4cc5cc(F)ccc5[nH]4)cc3)n2)cc1"
quantitative_result = 18

[[record]]
compound = "COc1ccc(CSc2nnc(-c3ccc4c(c3)CCO4)o2)cc1"
quantitative_result = 0

[[record]]
compound = "CS(=O)(=O)CCNCc1nc(-c2ccc3ncnc(Nc4ccc5c(cnn5Cc5ccccc5)c4)c3c2)cs1.Cl.Cl"
quantitative_result = 0

[[record]]
compound = "COc1ccc(Nc2nccc(N3CCC(NC(=O)c4cc5ccccc5s4)C3)n2)cc1 (centres unmarked)"
quantitative_result = 100

[[record]]
compound = "O=C(Nc1n[nH]c2nc(-c3cccs3)c(Br)cc12)C1CCCC1"
quantitative_result = 0

[[record]]
compound = "CS(=O)(=O)CCNCc1nc(-c2ccc3ncnc(Nc4ccc(OCc5ccccc5)c(Cl)c4)c3c2)cs1.Cl"
quantitative_result = 10

[[record]]
compound = "Cc1ccc(-c2nc(Nc3ccncc3)c3ccccc3n2)s1"
quantitative_result = 3

[[record]]
compound = "CNC(=O)c1ccc(C)c(-n2c(C)cc(OCc3ccc(F)cc3F)c(Br)c2=O)c1"
quantitative_result = 0

